target: T1, human CD52 (wildtype) (human, not fully specified (residue 3); also: N-linked glycan, GPI anchor); assay: flow cytometry, human CD4+ T cells from PBMC, FITC goat F(ab)2 anti-human Fc gamma secondary, GraphPad Prism fit (Example 29)
T1 construct: also called huCD52; hCD52
T1 chain: GQNDTSQTSSPS
Ends that are not written are not given here.
measurement.label: EC50 (nM)
Give a bare numeral; the unit nM is implied.

Reported EC50 for chimeric 2C3 antibody (antibody, human IgG1, V domains shown, also called 2C3-Chi; 2C3-chimeric) VH: EVKLEESGGGLVQPGGSMKLSCVASGFTFNTYWMNWVRQSPEKGLEWVAQIRLKSNNYATHYAESVKGRFTISRDDSKNSVYLQMNNLRAEDTGIYYCTPVDFWGQGTTLTVSS VL: DIVITQTPLTLSVTIGQPVSISCKSSQSLLYSNGKTYLNWLLQRPGQSPKRLIYLVSKLDSGVPDRFTGSGSGTDFTLKISRVEAEDLGVYYCVQGTHLHTFGAGTKLELK : what is it? 25.9
